Hey, just so you know, these numbers are from ChEMBL document CHEMBL4251593.

Entries and their MIC95
- Tested on: Pseudomonas aeruginosa
- procedureDetails: Antibacterial activity against Pseudomonas aeruginosa ATCC 9027 after 48 hrs by microdilution assay
- Type: functional
- runParameters: ATCC 9027, 48 h

Completed entries (count: 3):
compound: O=C(O)c1cn(C2CC2)c2cc(N3CCNCC3)c(F)cc2c1=O
measuredOn: Pseudomonas aeruginosa
MIC95: 7.81 µM
--
compound: COc1ccc(C2=C(c3cccc(Cl)c3Cl)C(=O)OC2(CO)CO)cc1
measuredOn: Pseudomonas aeruginosa
MIC95: > 500 µM
--
compound: COc1ccc(C2=C(c3ccc(OC)c(OC)c3)C(CO)(CO)OC2=O)cc1
measuredOn: Pseudomonas aeruginosa
MIC95: > 500 µM

Ask | Tell me measured MIC95 for O=C1OCC(c2ccc(C(F)(F)F)cc2)=C1c1c[nH]c2ccccc12 please.
Reply | > 125 µM

Ask | Look up MIC95 of COc1ccc(C2=C(c3ccc(S(C)(=O)=O)cc3)COC2=O)cc1 and report it.
Reply | > 500 µM

Ask | Name the recorded MIC95 of the compound listed here: O=C1OCC(c2ccccc2)=C1c1ccc(Br)cc1
Reply | > 1000 µM

* * *

Entries and their MIC95 values follow.
- Tested on: Klebsiella pneumoniae
- procedureDetails: Antibacterial activity against Klebsiella pneumoniae HK14368/08 clinical isolate after 48 hrs by microdilution assay
- Type: functional
- runParameters: HK14368/08, 48 h

Sample answers from the record:
compound: O=C1OCC(c2ccccc2)=C1c1ccc(Br)cc1
MIC95: > 1000 µM
--
compound: O=C1OCC(c2ccc3c(c2)OCO3)=C1c1ccc2c(c1)OCO2
MIC95: > 125 µM

Ask | Read the entry O=C1OCC(c2ccccc2)=C1c1cccc(C(F)(F)F)c1 and write its reported MIC95.
Reply | > 500 µM

Ask | Answer with the recorded MIC95 for the compound listed here: COc1cc(OC)c(C2=C(c3ccc(OC)c(OC)c3OC)COC2=O)c(OC)c1
Reply | > 500 µM

Ask | Using the record for Cc1ccc(C2=C(c3ccc(Br)cc3)C(=O)OC2CO)cc1 (stereo unspecified) , state its measured MIC95.
Reply | > 500 µM

Ask | # return recorded MIC95 for input COc1ccc(C2=C(c3ccc(OC)c(OC)c3)COC2=O)cc1
Reply | > 125 µM

Ask | Give MIC95 for the following compound: O=C1OCC(c2ccccc2)=C1c1ccc(F)cc1
Reply | > 500 µM

Ask | Look up MIC95 of COc1ccc(C2=C(c3ccc(Br)cc3)C(=O)OC2)cc1 and report it.
Reply | > 1000 µM

* * *

Below, each of the compounds is paired with its reported MIC95 value.
- System: Escherichia coli
- procedureDetails: Antibacterial activity against Escherichia coli ATCC 8739 after 24 hrs by microdilution assay
- Type: functional
- runParameters: ATCC 8739, 24 h

// known answers, use as guide
compound: Cc1ccc(C2=C(c3cccc(Cl)c3)C(=O)OC2)cc1
reading: > 500 µM
//
compound: COc1ccc(C2=C(c3ccc(OC)c(OC)c3)COC2=O)cc1
reading: > 125 µM
//
compound: COc1cc(OC)c(C2=C(c3ccc(OC)c(OC)c3OC)COC2=O)c(OC)c1
reading: > 500 µM

Ask | Hello, please tell me recorded MIC95 for this one: Cc1ccc(C2=C(c3ccc(Br)cc3)C(=O)OC2)cc1
Reply | > 1000 µM

Ask | Consider the compound Cc1ccc(C2=C(c3cccc(C(F)(F)F)c3)C(=O)OC2)cc1 . State its measured MIC95.
Reply | > 500 µM

Ask | Give recorded MIC95. COc1ccc(C2=C(c3ccc(OC)c(OC)c3)C(CO)OC2=O)cc1 (stereo not given)
Reply | > 125 µM

Ask | Tell me its MIC95 given O=C1OCC(c2ccc3c(c2)OCO3)=C1c1ccc2c(c1)OCO2 as the entry.
Reply | > 125 µM

Ask | Given Cc1ccc(C2=C(c3ccc(Br)cc3)C(=O)OC2(CO)CO)cc1 , respond with its MIC95.
Reply | > 500 µM

Ask | Note MIC95 for the compound shown: O=C1OC(CO)(CO)C(c2ccc(Br)cc2)=C1c1cccc(Cl)c1Cl
Reply | > 500 µM

Ask | Return MIC95 (reported value) for this compound: COc1ccc(C2=C(c3c(Cl)cccc3Cl)C(=O)OC2)cc1
Reply | > 500 µM

Ask | Answer with the recorded MIC95 for the compound listed here: O=C1OCC(c2ccc(C(F)(F)F)cc2)=C1c1ccncc1
Reply | > 500 µM

Ask | Respond only with MIC95 recorded for O=C1OCC(c2ccc(C(F)(F)F)cc2)=C1c1ccc(Br)cc1
Reply | > 500 µM

Ask | Identify MIC95 associated with the compound COc1ccc(C2=C(c3ccc(OC)c(OC)c3)C(CO)(CO)OC2=O)cc1
Reply | > 500 µM

Ask | Identify MIC95 associated with the compound O=C1OCC(c2ccc(C(F)(F)F)cc2)=C1c1c[nH]c2ccccc12
Reply | > 125 µM

Ask | Answer with the recorded MIC95 of Cc1ccc(C2=C(c3ccc(Br)cc3)C(=O)OC2CO)cc1 (stereo not given) only.
Reply | > 500 µM

* * *

- Tested on: Staphylococcus aureus
- procedureDetails: Antibacterial activity against methicillin-resistant Staphylococcus aureus HK5996/08 clinical isolate after 48 hrs by microdilution assay
- Assay type: functional
- runParameters: HK5996/08, 48 h
endpointLabel: MIC95

Study these solved cases before continuing.
smilesRecord: CC(=O)OCC1(COC(C)=O)OC(=O)C(c2ccc(Br)cc2)=C1c1ccc(C)cc1
reading: > 125 µM
--
smilesRecord: O=C1OCC(c2ccccc2)=C1c1ccc(F)cc1
reading: 125 µM
--
smilesRecord: COc1ccc(C2=C(c3ccc4c(c3)OCO4)COC2=O)cc1
reading: > 500 µM

Ask | Supply recorded MIC95 for O=C1OCC(c2ccc3c(c2)OCO3)=C1c1ccc2c(c1)OCO2 here.
Reply | > 125 µM

Ask | Note down MIC95 recorded for COc1ccc(C2=C(c3ccc(OC)c(OC)c3)C(CO)(CO)OC2=O)cc1
Reply | 500 µM

Ask | Look up and state reported MIC95 for O=C1OC(CO)(CO)C(c2ccc(Br)cc2)=C1c1cccc(Cl)c1Cl
Reply | > 500 µM

* * *

- System: BJ
- procedureDetails: Cytotoxicity against human BJ cells assessed as reduction in cell viability after 48 hrs by ATPlite-based luminescent assay
pIC50: −log10 of the molar value.
We begin with a simple list: items and their reported pIC50.

These solved cases illustrate the format of a correct answer.
smilesRecord: Cc1ccc(C2=C(c3cccc(C(F)(F)F)c3)C(=O)OC2)cc1
pIC50: < 4.40
//
smilesRecord: O=C1OCC(c2ccc(O)cc2)=C1c1ccc(Br)cc1
pIC50: < 4.40
//
smilesRecord: O=C1OCC(c2ccc(Cl)cc2)=C1c1ccc(C(F)(F)F)cc1
pIC50: < 4.40

Ask | Return pIC50 for the following compound: COc1ccc(C2=C(c3ccc(Br)cc3)C(=O)OC2)cc1
Reply | < 4.40

Ask | Query pIC50 for O=C1OCC(c2ccc(C(F)(F)F)cc2)=C1c1ccncc1
Reply | < 4.40

Ask | For O=C1OCC(c2ccc3c(c2)OCO3)=C1c1ccc2c(c1)OCO2 , write its pIC50.
Reply | < 4.40

Ask | Consider the compound COc1ccc(C2=C(c3ccc(S(C)(=O)=O)cc3)COC2=O)cc1 . State its measured pIC50.
Reply | < 4.40

Ask | Give recorded pIC50. O=C1OCC(c2ccccc2)=C1c1ccc(Br)cc1
Reply | < 4.40

Ask | Read the entry O=C1OCC(c2ccccc2)=C1c1ccc(F)cc1 and write its reported pIC50.
Reply | < 4.40

Ask | Output measured pIC50 for this item: O=C1OC(CO)(CO)C(c2ccc(Br)cc2)=C1c1cccc(Cl)c1Cl
Reply | < 4.40

* * *

- Test system: Staphylococcus aureus
- procedureDetails: Antibacterial activity against methicillin-resistant Staphylococcus aureus HK5996/08 clinical isolate after 48 hrs by microdilution assay
- Format: functional
- runParameters: HK5996/08, 48 h
endpointLabel: MIC95 (µM)
API: value field is a number in µM; no unit string.

compound: COc1ccc(C2=C(c3ccc(OC)c(OC)c3)C(CO)OC2=O)cc1 (centres undefined)
unitOfMeasurement: µM
MIC95: 125

Ask | State its MIC95 for this compound: Cc1ccc(C2=C(c3cccc(Cl)c3)C(=O)OC2)cc1
Reply | 15.6

Ask | Specify reported MIC95 for the compound shown: Cc1ccc(C2=C(c3ccc(Br)cc3)C(=O)OC2CO)cc1 (centres undefined)
Reply | 62.5

Ask | Give MIC95 for the following compound: COc1ccc(C2=C(c3cccc(Cl)c3Cl)C(=O)OC2(CO)CO)cc1
Reply | 125

Ask | Input O=C1OCC(c2ccc(C(F)(F)F)cc2)=C1c1ccncc1 , output reported MIC95.
Reply | 500
